Biological target: hnRNPK KH3 (Homo sapiens, UniProt P61978 384-463)
Sequence (P61978 384-463): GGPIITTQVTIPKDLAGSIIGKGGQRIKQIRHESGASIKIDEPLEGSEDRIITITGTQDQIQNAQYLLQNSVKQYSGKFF
Assay: ITC
pKd: −log10 of the molar value.
measured quantity: pKd

>>> print(df.to_string())
                           binder  measured_quantity  numeric_result
0  CUCCCGC (ssRNA) [heptamer RNA]                pKd            5.37

Cited source for all entries: paper PMC10023864
